The origin of these recorded values is patent US8178506B2.

Test system: IL-6 mRNA
Experiment: IL-6 mRNA in LPS-activated primary murine macrophages
Format: cell-based, mouse
Conditions: 75 nM, +IFN, average of 3 treatments
In the oligonucleotide strings, read from the 5' end, every base follows the letter of its sugar. An asterisk marks phosphorothioate; unmarked linkages are phosphodiester. Other units and linkages are bracketed, terminal groups are in braces. A string of capitals states the bases alone. e = 2'-O-(2-methoxyethyl) (MOE); [5mC] = 5-methylcytosine; d = 2'-deoxy (DNA)
Can you tell me IL-6 mRNA expression, % UTC for the items I'm about to list?
Units required after the number.

Log: IL-6 mRNA, substance 327941 (antisense eA*eA*e[5mC]*e[5mC]*e[5mC]*eA*e[5mC]*e[5mC]*eG*eA*e[5mC]*eA*eG*e[5mC]*eA*eA*eT*eG*eA*eA*eT*eG*eT*eT) [compound 327941] , IL-6 mRNA expression, % UTC = 181 % UTC

Log: IL-6 mRNA, substance 229927 (antisense e[5mC]*e[5mC]*eA*e[5mC]*eA*dT*dT*dG*dA*dG*dT*dT*dT*d[5mC]*dT*eT*eT*eA*eA*eG) [compound 229927] , IL-6 mRNA expression, % UTC = 54 % UTC

Log: IL-6 mRNA, substance 129690 (antisense TTAGAATACGTCGCGTTATG; sugars from the 5' end e5 d10 e5, all phosphorothioate, methylation of C not given here) [compound 129690] , IL-6 mRNA expression, % UTC = 92 % UTC

###

System: BJ cells
Assay: Cell cycle assay in BJ cells
Assay type: cell-based, human
Details: 200 nM, 48 hours, relative to untreated control
Procedure: BJ cells were routinely cultured in MEM high glucose with 2 mM L-glutamine and Earle's BSS adjusted to contain 1.5 g/L sodium bicarbonate and supplemented with 10% fetal bovine serum, 0.1 mM non-essential amino acids and 1.0 mM sodium pyruvate (all media and supplements from Invitrogen Life Technologies, Carlsbad, Calif.). […]
In the oligonucleotide strings, read from the 5' end, every base follows the letter of its sugar. An asterisk marks phosphorothioate; unmarked linkages are phosphodiester. Other units and linkages are bracketed, terminal groups are in braces. A string of capitals states the bases alone. e = 2'-O-(2-methoxyethyl) (MOE); [5mC] = 5-methylcytosine; d = 2'-deoxy (DNA)
readoutName: % cells in cell cycle phase aneuploid (%)
Give the value in % but do not write % after it.

Measured % cells in cell cycle phase aneuploid, 25691 (antisense eG*e[5mC]*e[5mC]*eA*eA*dG*dG*d[5mC]*dG*dT*dG*dA*d[5mC]*dA*dT*eG*eA*eT*eA*eT) [compound 25691] : 209

Measured % cells in cell cycle phase aneuploid, 345395 (AAGGGATTCCTGGGAAAACTGGAC; sugars from the 5' end e5 d10 e9, all phosphorothioate, methylation of C not given here) [compound 345395] : 115

Measured % cells in cell cycle phase aneuploid, 327902 (antisense eG*eG*e[5mC]*eT*eG*eT*e[5mC]*eA*eA*eT*eT*e[5mC]*eA*eT*eA*eG*eG*eT*e[5mC]*eA*eG) [compound 327902] : 82

Measured % cells in cell cycle phase aneuploid, 328759 (antisense eG*eA*eG*eG*eG*dA*dT*dT*dG*dT*dA*dT*dG*dA*dA*e[5mC]*eA*eT*e[5mC]*eT) [compound 328759] : 160

###

Can you tell me TG (triglyceride accumulation) for the items I'm about to list?
Tested on: adipocytes
Test: Triglyceride accumulation assay in adipocytes
Type: cell-based, human
Conditions: adipocytes, 250 nM oligomeric compound, relative to control (1.0); Table 16
Description: The triglyceride accumulation assay measures the synthesis of triglyceride by adipocytes. Triglyceride accumulation is measured using the Infinity™ Triglyceride reagent kit (Sigma-Aldrich, St. Louis, Mo.). […] Triglyceride accumulation is measured based on the amount of glycerol liberated from triglycerides by the enzyme lipoprotein lipase. […] Dye absorbance, which is proportional to the concentration of glycerol, is measured at 515 nm using an UV spectrophotometer. […]
In the oligonucleotide strings, read from the 5' end, every base follows the letter of its sugar. An asterisk marks phosphorothioate; unmarked linkages are phosphodiester. Other units and linkages are bracketed, terminal groups are in braces. A string of capitals states the bases alone. e = 2'-O-(2-methoxyethyl) (MOE); [5mC] = 5-methylcytosine
// keep it numeric: no unit symbol after the value

Measured TG (triglyceride accumulation), 327926 (antisense eA*e[5mC]*eT*eA*eT*eG*e[5mC]*eA*eA*e[5mC]*e[5mC]*eT*eA*e[5mC]*eT*eA*e[5mC]*e[5mC]*eT*e[5mC]*eT) [compound 327926] : 1.06

Measured TG (triglyceride accumulation), 327888 (antisense eA*eA*eT*eG*e[5mC]*e[5mC]*e[5mC]*e[5mC]*eT*eA*eA*eA*eA*eA*eT*e[5mC]*e[5mC]*eT*eT*eA*eT) [compound 327888] : 0.44

Measured TG (triglyceride accumulation), 327889 (antisense eG*eT*eG*eG*eT*eA*eA*eT*e[5mC]*e[5mC]*e[5mC]*eT*eG*eG*e[5mC]*eA*eA*eT*eG*eT*eG*eA*eT) [compound 327889] : 0.46

###

System: HSL
Assay: HSL mRNA expression in adipocytes (real-time PCR)
Type: cell-based, human
Conditions: differentiating adipocytes transfected with oligomeric compound; Table 75
In the oligonucleotide strings, read from the 5' end, every base follows the letter of its sugar. An asterisk marks phosphorothioate; unmarked linkages are phosphodiester. Other units and linkages are bracketed, terminal groups are in braces. A string of capitals states the bases alone. e = 2'-O-(2-methoxyethyl) (MOE); [5mC] = 5-methylcytosine
readoutName: HSL mRNA

Measured HSL mRNA, 328129 (antisense eA*eG*e[5mC]*e[5mC]*eT*e[5mC]*e[5mC]*eT*eT*e[5mC]*eT*eT*e[5mC]*eT*e[5mC]*eG*eT*eA*e[5mC]*eT*eA) [compound 328129] : 34 percentage of untreated control (UTC)

Measured HSL mRNA, 328123 (antisense eT*eT*eA*e[5mC]*eA*eG*eG*eT*eG*e[5mC]*eT*eG*e[5mC]*eA*eA*e[5mC]*eT*eG*eG*eA*eA) [compound 328123] : 91 percentage of untreated control (UTC)

Measured HSL mRNA, 327896 (antisense eA*e[5mC]*eA*eG*eT*eT*e[5mC]*eT*eT*e[5mC]*eA*eA*e[5mC]*eT*eG*eG*e[5mC]*eA*eG*e[5mC]*eT*eT) [compound 327896] : 37 percentage of untreated control (UTC)

Measured HSL mRNA, 327970 (antisense eA*e[5mC]*eA*eA*eA*eG*eT*eT*e[5mC]*eT*eG*eT*eA*eG*eT*eG*e[5mC]*eA*e[5mC]*eT*eG*eA) [compound 327970] : 25 percentage of untreated control (UTC)

Measured HSL mRNA, 327959 (antisense e[5mC]*eA*eG*e[5mC]*e[5mC]*eG*e[5mC]*eT*eG*eT*e[5mC]*eA*e[5mC]*eA*e[5mC]*eG*e[5mC]*eA*e[5mC]*eA*eG) [compound 327959] : 11 percentage of untreated control (UTC)

Measured HSL mRNA, 327963 (antisense eA*eA*e[5mC]*e[5mC]*eT*eA*eT*e[5mC]*e[5mC]*eT*eG*eA*eA*eT*eT*eA*e[5mC]*eT*eT*eG*eA*eA) [compound 327963] : 89 percentage of untreated control (UTC)

Measured HSL mRNA, 346906 (ACAGGAUUGAGGGGGGGCCCU; all 2'-MOE, all phosphorothioate, methylation of C and T or U not given here) [compound 346906] : 70 percentage of untreated control (UTC)

Measured HSL mRNA, 327906 (antisense eT*e[5mC]*eA*eT*eA*eG*e[5mC]*e[5mC]*e[5mC]*eT*eG*eT*eA*e[5mC]*eA*eA*eT*eG*e[5mC]*eT*eG*e[5mC]*eT) [compound 327906] : 37 percentage of untreated control (UTC)

Measured HSL mRNA, 328109 (antisense eA*eA*eA*eG*eA*eA*eG*eT*eA*eT*eA*eT*eG*e[5mC]*eA*eT*eA*eG*eG*eA*eA) [compound 328109] : 62 percentage of untreated control (UTC)

Measured HSL mRNA, 327900 (antisense e[5mC]*eT*eG*e[5mC]*e[5mC]*eT*eG*eT*e[5mC]*eT*eG*eT*eG*e[5mC]*e[5mC]*eT*eG*e[5mC]*eT*eG*eT) [compound 327900] : 21 percentage of untreated control (UTC)

Measured HSL mRNA, 328091 (antisense eG*e[5mC]*eT*eG*e[5mC]*e[5mC]*eG*eT*eA*eT*eA*eT*eG*eT*eG*eA*eT*eG*eT*e[5mC]*eA) [compound 328091] : 40 percentage of untreated control (UTC)

###

System: HeLa cells
Assay: Cell cycle assay in HeLa cells
Assay type: cell-based, human
Conditions: HeLa cells, 150 nM, 48 hours; percentage of cells in phase, average of replicates
In the oligonucleotide strings, read from the 5' end, every base follows the letter of its sugar. An asterisk marks phosphorothioate; unmarked linkages are phosphodiester. Other units and linkages are bracketed, terminal groups are in braces. A string of capitals states the bases alone. e = 2'-O-(2-methoxyethyl) (MOE); [5mC] = 5-methylcytosine; d = 2'-deoxy (DNA)
Can you tell me % cells in cell cycle phase: aneuploid for the items I'm about to list?
Give the value in % but do not write % after it.

Log: HeLa cells, substance 328403 (antisense eA*eG*eG*e[5mC]*e[5mC]*dT*dA*dT*dT*d[5mC]*d[5mC]*dT*dG*dT*dA*eG*e[5mC]*eA*eA*eA) [compound 328403] , % cells in cell cycle phase: aneuploid = 13

Log: HeLa cells, substance 327902 (antisense eG*eG*e[5mC]*eT*eG*eT*e[5mC]*eA*eA*eT*eT*e[5mC]*eA*eT*eA*eG*eG*eT*e[5mC]*eA*eG) [compound 327902] , % cells in cell cycle phase: aneuploid = 12

Log: HeLa cells, substance 328383 (eA*eG*eA*eG*eG*dG*dG*dA*dG*dA*d[5mC]*dG*dA*dG*dA*eG*e[5mC]*eA*e[5mC]*eT) [compound 328383] , % cells in cell cycle phase: aneuploid = 11

Log: HeLa cells, substance 327905 (antisense e[5mC]*eA*eG*eA*e[5mC]*eT*e[5mC]*e[5mC]*eG*eG*eT*eG*eG*eA*eA*eT*eG*eA*eA*eG*eG*eA) [compound 327905] , % cells in cell cycle phase: aneuploid = 12
